Please respond with reported log2 fold change of degron read counts for every item in the list.
- assayedSystem: T1, CRBN, Q96SW2;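 note: pooled lentiviral library of zinc finger degron-EGFP fusions in mCherry-positive Jurkat cells, FACS-sorted after compound exposure, with degron abundance counted by next-generation sequencing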
- T1 chain: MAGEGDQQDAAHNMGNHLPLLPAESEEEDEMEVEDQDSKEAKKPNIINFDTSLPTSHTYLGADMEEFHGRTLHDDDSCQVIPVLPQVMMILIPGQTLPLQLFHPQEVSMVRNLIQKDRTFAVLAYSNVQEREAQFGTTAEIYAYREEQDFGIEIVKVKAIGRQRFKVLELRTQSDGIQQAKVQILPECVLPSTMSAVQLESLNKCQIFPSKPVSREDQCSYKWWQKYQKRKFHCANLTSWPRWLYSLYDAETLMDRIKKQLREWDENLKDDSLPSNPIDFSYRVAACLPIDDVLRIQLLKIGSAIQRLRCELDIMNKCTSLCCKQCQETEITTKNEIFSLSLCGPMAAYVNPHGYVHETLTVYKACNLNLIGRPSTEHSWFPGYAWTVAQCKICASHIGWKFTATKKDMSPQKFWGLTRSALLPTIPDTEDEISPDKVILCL
- testSummary: log2 fold change of degron read counts, EGFP-low vs EGFP+ sorted cells (limma voom), compound-induced degradation; higher = more compound-induced degradation of the degron-EGFP fusion; degrons are variants of IKZF1/3 zinc finger 2; compound dose not given here
- conditionDetails: Jurkat; 18 h; compound: compound 22 (5-morpholino-thalidomide)
Over roughly 8,300 sequences, “log2 fold change of degron read counts, EGFP-low vs EGFP+ sorted cells (limma voom), compound-induced degradation” has its median near -1.1; the highest 2% begin near 3.2. For the sample, the highest values were picked, then their nearest neighbours and some sequences at random.
API doc: respond with a numeric literal and nothing else, no unit.

Request: Quote log2 fold change of degron read counts reported for FVCNQCGRLFTQKGNLLRHIKL [46F_47V_49N_50Q_52G_53R_54L_55F_67L_, Q9UKT9] please.
Result: -2.78

Request: Quote log2 fold change of degron read counts reported for FWCDICGAKFTQKGNLLRHIKL [46F_47W_49D_50I_52G_53A_54K_55F_67L_, Q9UKT9] please.
Result: 3.7

Request: Quote log2 fold change of degron read counts reported for LVCPICGFSCTQKGNLLRHIKL [46L_47V_49P_50I_52G_53F_54S_55C_67L_, Q9UKT9] please.
Result: 3.63

Request: Quote log2 fold change of degron read counts reported for LCCPICGFYCTQKGNLLRHIKL [46L_47C_49P_50I_52G_53F_54Y_55C_67L_, Q9UKT9] please.
Result: 2.29
